# Test system: A498 renal
# ASSAY PROTOCOL: NCI tumour cell line growth inhibition, 48 h
Some molecules, each annotated with its measured GI50.

Some solved cases for reference:
API: value(readout= GI50, system= A498 renal, query= Cc1ccc(-c2c3c(N)c4c(nc3nc3c2c(C)nn3-c2ccccc2)CCC4)cc1 ) 16.1 µM

API: value(readout= GI50, system= A498 renal, query= O=C(CN1C(=O)S/C(=C\C(Cl)=C\c2ccccc2)C1=O)NCCCn1ccnc1 ) 1.28 µM

API: value(readout= GI50, system= A498 renal, query= CCCCN(CCCC)CCC(O)c1cc2ccc(C(F)(F)F)cc2c2cc(C(F)(F)F)ccc12 (stereo not given) ) 2.02 µM

API: value(readout= GI50, system= A498 renal, query= COc1cc2c(cc1OCCCCCn1c3ccccc3c3ccccc31)N=C[C@@H]1CCCN1C2=O ) 1.77 µM

API: value(readout= GI50, system= A498 renal, query= CCc1c2c(nc3ccc(OCc4ccc(B5OC(C)(C)C(C)(C)O5)cc4)cc13)-c1cc3c(c(=O)n1C2)COC(=O)[C@]3(O)CC ) 0.0406 µM

API: value(readout= GI50, system= A498 renal, query= NCCSC(C[N+](=O)[O-])c1ccccc1Cl (stereo not given) ) 2.3 µM

Further cases:
API: value(readout= GI50, system= A498 renal, query= O=[N+]([O-])c1cc2c(ccc3occc32)o1 ) 2.21 µM

API: value(readout= GI50, system= A498 renal, query= CC1=NN(C(=O)c2nn(-c3ccc(Cl)cc3)cc2O)C(=O)C1 ) 2.92 µM

API: value(readout= GI50, system= A498 renal, query= COc1ccc2c(c1)C=C1CSCC3=Cc4cc(OC)ccc4OC13O2 ) 0.23 µM

API: value(readout= GI50, system= A498 renal, query= O=C(NN1C(=O)CSC12CCC(c1ccccc1)CC2)c1[nH]c2ccc(F)cc2c1-c1ccccc1 (stereo not given) ) 18.5 µM

----------
Some compounds, each annotated with its measured TGI.
# System: SNB-19 CNS
# ASSAY PROTOCOL: NCI tumour cell line growth inhibition, 48 h

Some solved cases for reference:
# TGI lookup, item O=C1COCCN1c1ccc(NCc2cn(C(=O)c3ccc(Cl)cc3)c3ccccc23)cc1 > 100 µM

# TGI lookup, item Cc1ccccc1NC(=O)c1cc2ccccc2cc1O > 100 µM

# TGI lookup, item C#CC(O)Cc1ccc(OC)c2occc12 (stereo unspecified) > 100 µM

# TGI lookup, item Cc1ncc(CO)c(C=NCCCCCCN=Cc2c(CO)cnc(C)c2O)c1O > 100 µM

# TGI lookup, item CCN1C(=O)CS/C1=N\NC(=O)CSc1nc2ccccc2c(=O)n1CC > 100 µM

# TGI lookup, item COc1ccccc1N1C(=O)CC(=O)N(C(=O)CCCCCCCCC(=O)N2C(=O)CC(=O)N(c3ccccc3OC)C2=S)C1=S > 100 µM

Further cases:
# TGI lookup, item O=C1NN=CN2C(=O)CCC12 (stereo unspecified) > 100 µM

# TGI lookup, item CCCOP(=S)(N1CC1)N1CC1 > 100 µM

----------
# Tested on: CCRF-CEM leukemia
# ASSAY PROTOCOL: NCI tumour cell line growth inhibition, 48 h
Some compounds, each annotated with its measured TGI.
Hi! Could you send only the number? It should be in µM, unit omitted.

Some solved cases for reference:
API: value(readout= TGI, system= CCRF-CEM leukemia, query= O=C1/C(=C/c2ccc(Cl)cc2)Sc2scc(-c3cccc([N+](=O)[O-])c3)[n+]21 ) 1.18

API: value(readout= TGI, system= CCRF-CEM leukemia, query= CN1CCCC(C(=O)OCC(=O)C2(O)CCC3C4CCC5=CC(=O)CCC5(C)C4C(O)CC32C)C1 (stereo not given) ) 35.6

Further cases:
API: value(readout= TGI, system= CCRF-CEM leukemia, query= CN(C)C(=O)Oc1ccc(C(=S)Nc2ccccc2)cc1Br ) 48.6

API: value(readout= TGI, system= CCRF-CEM leukemia, query= c1ccc(/C(=N\Nc2ccc3ccccc3n2)c2ccccn2)cc1 ) 1.47

----------
# System: NCI-H23 lung
# ASSAY PROTOCOL: NCI tumour cell line growth inhibition, 48 h
Some molecules, each annotated with its measured TGI.

# TGI lookup, item CC(C)(C)N=c1n(C(C)(C)C)oc(=O)n1-c1ccccc1 > 50 µM

# TGI lookup, item O=C(CC(=O)C1CCOC1=O)C(=O)Nc1ccc(Cl)cc1 (configuration not stated) > 100 µM

# TGI lookup, item CCCCCCCCCCCCCCCCCc1nnc(N)o1 > 100 µM

Further cases:
# TGI lookup, item CN(C)N=Nc1nn(C(=O)Nc2ccc(Cc3ccccc3)cc2)c2ccccc12 > 100 µM

# TGI lookup, item O=C1NN=C(c2ccc([N+](=O)[O-])cc2)C1n1nc(-c2ccccc2)c2ccccc2c1=O (configuration not stated) > 100 µM

# TGI lookup, item O=c1cc(-c2ccc(O)cc2)oc2cc(O)cc(O)c12 46.6 µM

# TGI lookup, item N#CC(C(=O)CCC(=O)Nc1ccc(Cl)c(Cl)c1)c1ccc(Cl)cc1 (configuration not stated) > 100 µM

# TGI lookup, item CC1(C)CC2(C)ON=C(c3ccccc3)N2c2ccccc2N1 (configuration not stated) 82.1 µM

# TGI lookup, item NC(=S)N/N=C/c1ccc(OC(=O)COc2ccccc2Cl)cn1 > 70.5 µM

----------
# System: MDA-MB-231 breast
# ASSAY PROTOCOL: NCI tumour cell line growth inhibition, 48 h
READOUT KIND: GI50

# GI50 lookup, item c1ccc(/C(=N\Nc2ccc3ccccc3n2)c2ccccn2)cc1 0.839 µM

# GI50 lookup, item O=C(Cn1c2ccccc2c2ccncc21)N/N=C\c1ccc2ccccc2c1 14.5 µM

Here's the next entry for you.
# GI50 lookup, item CNc1ncc2cc(Oc3ccc(F)cc3F)c(=O)n(C)c2n1 > 24.1 µM

----------
# Test system: SK-MEL-5 melanoma
# ASSAY PROTOCOL: NCI tumour cell line growth inhibition, 48 h
Some compounds, each annotated with its measured TGI.

Some solved cases for reference:
# TGI lookup, item Cn1ncnc1C1c2n[nH]c(=O)c3cc(F)cc(c23)NC1c1ccc(F)cc1 (stereo not given) > 100 µM

# TGI lookup, item CCCOP(=S)(N1CC1)N1CC1 > 100 µM

Further cases:
# TGI lookup, item CC(=O)Nc1nnc(S(=O)(=O)NC(=S)Nc2ccc(Cl)cc2)s1 > 100 µM

# TGI lookup, item CC(=O)NC1C(OCc2ccccc2)OC(CO)C(O)C1OCC(=O)N1CCCC1C(=O)NC(CCC(=O)NCCCCCNc1c2ccccc2nc2cccc([N+](=O)[O-])c12)C(N)=O (stereo not given) 0.0386 µM

# TGI lookup, item O=C1COCCN1c1ccc(NCc2cn(C(=O)c3ccc(Cl)cc3)c3ccccc23)cc1 16.3 µM

# TGI lookup, item Clc1ccc(/C=C/c2nc(Cl)c(-c3ccc(Cl)cc3)c(Cl)n2)cc1 > 100 µM

# TGI lookup, item CC(C)(C)N=c1n(C(C)(C)C)oc(=O)n1-c1ccccc1 > 50 µM

# TGI lookup, item CCOC(=O)c1cn(CC)c2cc3c(cc2c1=O)SCS3 > 100 µM

# TGI lookup, item CSc1nc(C)c(CCCl)c(Cl)n1 > 100 µM

# TGI lookup, item Cc1ccc(-n2cc(-c3ccc(Cl)cc3)c(C#N)c2N)cc1 29.7 µM

----------
# System: SR leukemia
# ASSAY PROTOCOL: NCI tumour cell line growth inhibition, 48 h
READOUT KIND: TGI

# TGI lookup, item OC1(c2ccc3ccccc3c2)c2c(c3ccccc3c3ccccc23)C2=NCCN21 (stereo unspecified) > 28.4 µM

# TGI lookup, item COC(=O)C1C(/C=C/c2ccoc2)ON2CCC[C@@H]12 (stereo partly specified) > 100 µM

# TGI lookup, item Cc1nc(Nc2nc3ccccc3[nH]2)[nH]c(=O)c1CCO > 100 µM

Further cases:
# TGI lookup, item C=CC[C@H]1[C@H](O[Si](C)(C)C(C)(C)C)C=CC(=O)[C@@H]1CC(=O)OCC 41.7 µM

# TGI lookup, item C#CC(O)Cc1ccc(OC)c2occc12 (stereo unspecified) > 100 µM

# TGI lookup, item CCOC(=O)C1Oc2ccc([N+](=O)[O-])cc2C1(C)O (stereo unspecified) > 100 µM

# TGI lookup, item O=C(O)c1cc(=O)c2cc(C(=O)c3cccs3)c(Cl)c(Cl)c2o1 > 100 µM

# TGI lookup, item COc1nc(OC)nc(Sc2ccc(Sc3ccc(Sc4nc(OC)nc(OC)n4)cc3)cc2)n1 > 100 µM

# TGI lookup, item COc1ccc(/C(C#N)=C(/N)SCc2ccccc2Cl)cc1 > 100 µM

# TGI lookup, item CN(CCCN(C)CCC1CCCCC1)CCC1CCCCC1 4.21 µM

# TGI lookup, item Cc1cccc(N=C2NC(=O)C(CC(=O)Nc3ccccc3Cl)S2)c1 (stereo unspecified) > 100 µM

# TGI lookup, item COC(=O)C1=NN2c3ccccc3CN([C@@H](C)c3ccccc3)C(=O)[C@H]2[C@@H]1C > 100 µM

# TGI lookup, item Nc1cc(N)c(N=Nc2cccc3c(S(=O)(=O)O)cccc23)cc1N=Nc1cc([N+](=O)[O-])ccc1O 72.6 µM

# TGI lookup, item NNC(=S)N/N=C(/C(=O)Nc1ccc([N+](=O)[O-])cc1)c1nc2ccc([N+](=O)[O-])cc2[nH]c1=O > 100 µM

# TGI lookup, item Cc1ccc(-n2cc(-c3ccc(Cl)cc3)c(C#N)c2N)cc1 > 100 µM

# TGI lookup, item NC(=O)N/N=C(\CCC(=O)N(Cc1ccccc1)Cc1ccccc1)CC(=O)c1ccc(F)cc1 > 100 µM

# TGI lookup, item O=C(Nc1ccc(S(=O)(=O)Nc2ncccn2)cc1)c1c2ccccc2nc2ccccc12 > 100 µM

Values compiled from PubChem BioAssay (NCI).
